# credit: paper PMC6123443

Molecular target: T1, SinR A85T (Bacillus subtilis, UniProt P06533 1-111, A85T)
T1 sequence: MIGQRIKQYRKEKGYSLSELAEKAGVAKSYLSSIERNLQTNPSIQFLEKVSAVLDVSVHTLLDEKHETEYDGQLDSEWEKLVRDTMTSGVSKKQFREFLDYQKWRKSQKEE
Experiment: fluorescence polarization; 10 mM Tris-HCl pH 8.0, 100 mM NaCl, 1 mM EDTA; 10 nM labeled duplex, SinR diluted from 20 uM; temperature not stated
Settings: protein: recombinant; tags: none (pET24a, native stop codon in primer G10); chain copies: 4; label: 5'-fluorescein (FAM) on strand 1; blunt
PARAMETER MEASURED: Kd (nM)
Numbers only, in nM.

Look at this binder and give its reported Kd. eps operator inverted-repeat SinR box duplex, 21 bp (FAM1721/C-1723) (dsDNA) DNA 1: ATTGTTCTCTAAAGAGAACTT DNA 2: AAGTTCTCTTTAGAGAACAAT
852
